tested on: duplex DNA between NP-1 and NP-2; test: Melting temperature of NP-1/NP-2 gold nanoparticle duplex nanoassemblies (520 nm); type: binding; settings: NP-1 and NP-2 1.5 nM each, intercalator 5 μM, 10 mM PBS pH 7.0, NaCl 0.1 M, control 26.4
With a cut-off of 40 °C, any Tm^a, melting temperature of nanoassemblies strictly below it is called True; any Tm^a, melting temperature of nanoassemblies meeting it or above is called False.

Study these solved cases before continuing.
{"structureNotation": "O=C(O)c1ccc2c(c1)C(=O)c1ccccc1C2=O", "classLabel": "True"}
{"structureNotation": "Nc1c2ccccc2nc2ccccc12", "classLabel": "True"}

Asked: Hello, I'm reviewing records and need to know if Tm^a, melting temperature of nanoassemblies of "Cc1c2ccncc2c(C)c2c1[nH]c1ccccc12" is below 40 °C. Could you check?
Given back: True

Asked: Repeat with "COc1cccc2c1C(=O)c1c(O)c3c(c(O)c1C2=O)C[C@@](O)(C(C)=O)C[C@@H]3O[C@H]1C[C@H](N)[C@H](O)[C@H](C)O1"
Given back: True

Asked: Repeat with "N=C(N)c1ccc(-c2cc3ccc(C(=N)N)cc3[nH]2)cc1"
Given back: False
